Tested on: HEK-293T
assay procedure: Multiplex assay against HEK293T
Type: toxicity, cell-based
test settings: human, 48 h, 1 µM, compound concentration 1 uM, replicate 1
assay readout: Population Hoechst High Intensity Objects (%)
Field: numeric (%). Do not append units.

Please give the measured Population Hoechst High Intensity Objects (%) for this compound: CN1C[C@H](C(=O)N[C@]2(C)O[C@@]3(O)[C@@H]4CCCN4C(=O)[C@H](Cc4ccccc4)N3C2=O)C[C@@H]2c3cccc4[nH]cc(c34)C[C@H]21.CS(=O)(=O)O [DIHYDROERGOTAMINE MESYLATE]
2

Can you check Cc1cc(=O)n(C)c2cc(N3C(=O)CC[C@H](NS(=O)(=O)CC(C)C)[C@H]3c3ccc(Cl)cc3)ccc12 next?
3

Can you check O=C(Nc1cc(-c2ccccc2)nn1-c1ccccc1F)c1ccc([N+](=O)[O-])cc1 next?
3

###

System: Fibroblast
assay procedure: Multiplex assay against human fibroblast
Format: toxicity, cell-based
test settings: 48 h, 1 µM, compound concentration 1 uM, replicate 1
assay readout: Population Fragmented Nuclei (%)
Field: numeric (%). Do not append units.

Please give the measured Population Fragmented Nuclei (%) for this compound: Cl.Cl.OCCOCCN1CCN(C(c2ccccc2)c2ccc(Cl)cc2)CC1 (centres undefined) [HYDROXYZINE HYDROCHLORIDE]
17

Can you check C=CCN1C[C@H](C(=O)N(CCCN(C)C)C(=O)NCC)C[C@@H]2c3cccc4[nH]cc(c34)C[C@H]21 [CABERGOLINE] next?
15

Can you check CC(C)C[C@H](CO)Nc1nc(S[C@@H](C)c2ccccc2)nc2nc(N)sc12 [AZD-8797] next?
25

Can you check CCCCC[C@H](O)/C=C/[C@H]1[C@H](O)CC(=O)[C@@H]1CCCCCCC(=O)O [ALPROSTADIL] next?
18

###

Tested on: Fibroblast
assay procedure: Multiplex assay against human fibroblast
Format: toxicity, cell-based
test settings: 48 h, 10 µM, compound concentration 10 uM, replicate 2
Non-standard residues stand in square brackets, D forms with d. Residues, ends and D or L forms follow the SMILES beside them.
So I've got a bunch of molecules here, and I need their Population Mitotic Cells (%) values.
Field: numeric (%). Do not append units.

Enter reported Population Mitotic Cells (%) observed with Fibroblast for O=c1nc2[nH]c3ccccc3nc-2c(=O)[nH]1
54

Can you check COc1cc2nc(N3CCN(C(=O)c4ccco4)CC3)nc(N)c2cc1OC.Cl [PRAZOSIN HYDROCHLORIDE] next?
53

Can you check N[C@](CC1c2ccccc2Oc2ccccc21)(C(=O)O)[C@H]1C[C@@H]1C(=O)O next?
72

Can you check CCC(=O)OCC(=O)[C@@]1(OC(=O)CC)[C@@H](C)C[C@H]2[C@@H]3CCC4=CC(=O)C=C[C@]4(C)[C@@]3(Cl)[C@@H](O)C[C@@]21C [BECLOMETHASONE DIPROPIONATE] next?
62

Can you check Cl.Cl.OCCOCCN1CCN(C(c2ccccc2)c2ccc(Cl)cc2)CC1 (stereo not given) [HYDROXYZINE HYDROCHLORIDE] next?
62

Can you check Cc1sc2c(c1C)C(c1ccc(Cl)cc1)=N[C@H](CC(=O)OC(C)(C)C)c1nnc(C)n1-2 next?
36

Can you check Cc1nn(C)c2nc(NNC(=O)Nc3cc(Cl)nc(Cl)c3)cc(C(C)C)c12 next?
37

Can you check Cc1cc(NC(=O)NCCN2CCC(O)(Cc3ccccc3)CC2)c2ccccc2n1 next?
38

Can you check CN(C)C(=O)Cn1cc(-c2ccc(-c3nnc4ccccn34)cc2)cn1 next?
40

Can you check CN1C[C@H](C(=O)N[C@]2(C)O[C@@]3(O)[C@@H]4CCCN4C(=O)[C@H](Cc4ccccc4)N3C2=O)C[C@@H]2c3cccc4[nH]cc(c34)C[C@H]21.CS(=O)(=O)O [DIHYDROERGOTAMINE MESYLATE] next?
23

Can you check Cn1cc(C(=O)OCC2CCN(CCNS(C)(=O)=O)CC2)c2ccccc21 next?
50

Can you check CC(C)C[C@@H]1NC(=O)[C@@H](C(C)C)NC(=O)[C@@H]2CCCN2C(=O)[C@@H](CC(=O)O)NC(=O)[C@@H](Cc2c[nH]c3ccccc23)NC1=O [BQ-123] (cyclo(L[dW][dD]P[dV])) next?
53

Can you check CC(C)C[C@H](CO)Nc1nc(S[C@@H](C)c2ccccc2)nc2nc(N)sc12 next?
64

Can you check O=C(NCCNCC(O)COc1ccc(O)cc1)N1CCOCC1.O=C(NCCNCC(O)COc1ccc(O)cc1)N1CCOCC1.O=C(O)/C=C/C(=O)O (stereo not given) [XAMOTEROL FUMARATE] next?
47

Can you check Cc1cc(-c2ccc3c(c2)CC[C@H]3N2CC3(CCN(C(=O)Cc4cn5cc(C)sc5n4)CC3)C2)ncn1 next?
37

###

Test system: U2OS
assay procedure: Multiplex assay against U2OS
Assay type: toxicity, cell-based
test settings: human, 24 h, 1 µM, compound concentration 1 uM, replicate 1
So I've got a bunch of compounds here, and I need their Total Cell Count values.

Please give the measured Total Cell Count for this compound: COCCCN1CCC(NC(=O)c2cc(Cl)c(N)c3c2OCC3)CC1 [PRUCALOPRIDE]
247

Can you check O=c1nc2[nH]c3ccccc3nc-2c(=O)[nH]1 [ALLOXAZINE] next?
261

Can you check CN(C)C(=O)Cn1cc(-c2ccc(-c3nnc4ccccn34)cc2)cn1 next?
315

Can you check Cc1cc(O)c(-c2ccc([C@@H](C)CN(C)C)cc2)c2c1[nH]c(=O)c1sccc12 next?
256

Can you check Cn1cc(C(=O)OCC2CCN(CCNS(C)(=O)=O)CC2)c2ccccc21 next?
263

Can you check COc1c(Nc2ccc(S(C)(=O)=O)nc2C)ncnc1OC1CCN(C(=O)OC(C)C)CC1 [ADP-597] next?
239

Can you check COc1ccc2[nH]c(I)c(CCNC(C)=O)c2c1 [IODOMELATONIN] next?
354

###

Tested on: HEK-293T
assay procedure: Multiplex assay against HEK293T
Assay type: toxicity, cell-based
test settings: human, 48 h, 1 µM, compound concentration 1 uM, replicate 2
assay readout: Population Fragmented Nuclei (%)
Field: numeric (%). Do not append units.

Please give the measured Population Fragmented Nuclei (%) for this compound: COc1cc(OC2CCN(C(C)=O)CC2)ccc1C(=O)N1CCC(N2C(=O)OCc3ccccc32)CC1
11

Can you check Cc1c(Cc2ccc3ccccc3n2)c2cc(F)ccc2n1CC(=O)O [TIMAPIPRANT] next?
15

Can you check Cc1sc2c(c1C)C(c1ccc(Cl)cc1)=N[C@H](CC(=O)OC(C)(C)C)c1nnc(C)n1-2 next?
14

Can you check O=C(Nc1cc(-c2ccccc2)nn1-c1ccccc1F)c1ccc([N+](=O)[O-])cc1 next?
17

Can you check O=c1ccc2ccc(OCCCCN3CCN(c4cccc5sccc45)CC3)cc2[nH]1 [BREXPIPRAZOLE] next?
12

Can you check S=C(NCCCc1c[nH]cn1)NCCCN(Cc1ccc(Cl)c(Cl)c1)c1ccc(Br)cn1 next?
17

Can you check CC(C)C[C@H](CO)Nc1nc(S[C@@H](C)c2ccccc2)nc2nc(N)sc12 [AZD-8797] next?
12

Can you check COc1cc(Nc2ncc3c(n2)-c2ccc(Cl)cc2C(c2c(F)cccc2OC)=NC3)ccc1C(=O)O [ALISERTIB] next?
16

Can you check Cc1cc(-c2ccc3c(c2)CC[C@H]3N2CC3(CCN(C(=O)Cc4cn5cc(C)sc5n4)CC3)C2)ncn1 [PF-5190457] next?
12

Can you check CCCCCCNC(=O)Nc1ccc(S(=O)(=O)Nc2ccc(CCNC[C@H](O)COc3ccc(O)cc3)cc2)cc1 [L-755507] next?
13

Can you check CC(C)(O)C(=O)N1CCN(c2ccc(C(F)(F)F)c(C3=C(c4c[nH]c5ccccc45)C(=O)NC3=O)c2)CC1 next?
10

Can you check Cc1cc(NC(=O)NCCN2CCC(O)(Cc3ccccc3)CC2)c2ccccc2n1 [PALOSURAN] next?
13

Can you check O=C(NCCNCC(O)COc1ccc(O)cc1)N1CCOCC1.O=C(NCCNCC(O)COc1ccc(O)cc1)N1CCOCC1.O=C(O)/C=C/C(=O)O (configuration not stated) [XAMOTEROL FUMARATE] next?
11

Can you check CN(C)C/C=C/C(=O)Nc1ccc(C(=O)N2CCCC(Nc3ncc(Cl)c(-c4c[nH]c5ccccc45)n3)C2)cc1 (configuration not stated) next?
6

Can you check COc1ccc2c(c1OCc1ccccc1)C[C@@H](C(=O)O)N(C(=O)C(c1ccccc1)c1ccccc1)C2 [OLODANRIGAN] next?
15

Can you check Nc1nc(-c2ccco2)c2cnn(Cc3ccccc3F)c2n1 next?
14

Can you check OCCCNc1cc(-c2ccnc(Nc3cccc(Cl)c3)n2)ccn1 next?
17
